Known pEC50 of a selection of binders
subject.of.test: T1, Biotin sY51 PSGL-1(42-62) peptide (human, sulfotyrosine at Y51; C-terminal Lys-biotin)
T1 construct: also called Y51(SO3) PSGL-1(42-62)
T1 peptide: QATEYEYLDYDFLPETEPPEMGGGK
protocol.details: ELISA, immobilized biotin peptide
For clarity, pEC50 is expressed as the negative log10 of concentration in mol/L.

| binder | pEC50 |
| --- | --- |
| 2E12 (antibody, V domains shown, Mouse hybridoma mAb; only variable domains given) VH: QVQLQQSGAELARPGASVKLSCKASGYTFTNYGLNWVKQRTGQGLEWIGEIYPRSGNTYYNEKFKGKATLTADKSSSTAYMQLSSLTSEDSAVYFCATEGAYWGQGTLVTVSA VL: DIVMTQTPLTLSVTIGQPASISCKSSQSLLHGNGKTYLNWLLQRPGQSPKLLIYLVSKLESGIPDRFSGSGSGTDFTLEISRVEAEDLGIYYCLQSTHFPRTFGGGTKLEIK | 9.18 |
| 18L13 (antibody, V domains shown, Mouse hybridoma mAb; only variable domains given) VH: EVQLQQSGAELVRPGASVKLSCTASGFNIKDDFMHWVKQRPEQGLEWIGRIDPASGKTEYVPKFQDKATLTADTSSNTAYLQLSSLTSEDTAVYYCARRIAYWGQGTLVTVSA VL: DVVMTQTPLTLSVTIGQPASISCKSSQSLLHSNGKTYLNWLLQRPGQSPKLLIYLVSKLESGLPDRFSGSGSGTDFSLKISRVEAEDLGVYYCLQTTHFPQTFGGGTKLEIK | 9.04 |
| 19I01 (antibody, V domains shown, From mouse immunisation; only variable domains given; also called 19101) VH: EVQLVESGGGLVKPGGSRKLSCAASGFTFSDYGMHWVRQAPEKGLEWVAYISSGSSTIYYADTVKGRFTISRDNAKNTLFLQMTSLRSEDTAMYYCARGVDGYWGQGTTLTVSS VL: DVVMTQTPLSLPVSLGDQASISCRSSQSLVHSNGNTYLHWYLQKPGQSPKFLIYKVSNRFSGVPDRFSGSGSGTDFTLKISRVEAEDLGVYFCSQTTHVPLTFGAGTKLELK | 8.91 |
| 18F02 (antibody, V domains shown, From mouse immunisation; only variable domains given) VH: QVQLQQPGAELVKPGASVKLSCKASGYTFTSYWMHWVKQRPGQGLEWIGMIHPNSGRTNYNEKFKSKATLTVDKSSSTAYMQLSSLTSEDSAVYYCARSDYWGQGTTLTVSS VL: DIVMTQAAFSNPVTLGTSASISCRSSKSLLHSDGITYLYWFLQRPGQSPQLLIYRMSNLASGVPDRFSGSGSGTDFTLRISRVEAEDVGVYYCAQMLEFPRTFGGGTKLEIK | 9.15 |
| 16L15 (antibody, V domains shown, From mouse immunisation; only variable domains given) VH: DVKLVESGGGLVKLGGSLKLSCAASGFTFSSYYMSWVRQTPEKRLEWVATISNGGGSTYYPDSVKDRFTISRDNAKNTLYLQMSSLNSEDTAVYYCAKPLYYSNPWFAYWGQGTLVTVSA VL: DVLLTQTPLSLPVSLGDQASISCRSSQSIVHSNGNTYLEWYLQKPGQSPKLLIYKVSNRFSGVPDRFSGSGSGTDFTLKISRVEAEDLGVYYCFQGSHVPRTFGGGTKLEIK | 9.09 |
| 5E12 (antibody, V domains shown, Mouse hybridoma mAb; only variable domains given) VH: EIQLQQSGAELVRPGASVKLSCTASGFNIKDDYIHWVKQRPEQGLEWIGRIDPANGNTKSAPKFQDKATITADTSSNTAYLHLSSLTSEDTAVYYCSIRFAYWGQGTLVTVSA VL: DVVMTQTPLSLSVSLGDQASISCRSSQSLVYRNGDTYLHWFLQKPGQSPKLLIYKVSNRFSGVPDRFSGSGSGTDFTLKISRVEAEDLGIYFCSQNTHVPYTFGGGTKLEIK | 9.26 |

Field: next binder
Record summary for 20I15 (antibody, V domains shown, From mouse immunisation; only variable domains given; also called 20115) VH: EVKLVESGGGLVQPGGSLSLSCAASGFTFTDYYMSWVRQPPGKALEWLGFIRNKANGYTTEYSASVKGRFTISRDNSQSILYLQMNALRAEDSATYYCARTYLRRGYFDVWGTGTTVTVSS VL: DIVLTQSPASLAVSLGQRATISCRASKSVSTSGYSYMHWFQQKPGQPPKLLIYLASNLESGVPARFSGSGSGTDFTLNIHPVEEEDAATYYCQHSRELPLTFGAGTKLELK : reported pEC50 = 6.75
